- TEST: AUC in Beagle dog at 5 mg/kg, po
- Format: ADME, organism-based, Canis lupus familiaris
- Parameters: dose 5 mg/kg, route oral
- CONDITION DESCRIPTION: plasma

>  <STRUCTURE SMILES>
C=C[C@@H]1C[C@]1(NC(=O)[C@@H]1C[C@@H]2CN1C(=O)[C@H](C1CCCCC1)NC(=O)OCC(C)(C)CCCc1cc3c(nccc3cc1OC)O2)C(=O)NS(=O)(=O)C1CC1

>  <MEASUREMENT UNIT>
µM·h

>  <AUC>
12.4

$$$$

====

- TEST: Bioavailability in Beagle dog at 2 mg/kg, iv and 5 mg/kg, po
- Assay type: ADME, organism-based, Canis lupus familiaris
- CONDITION DESCRIPTION: in vivo
MEASUREMENT LABEL: bioavailability (%)

>  <STRUCTURE SMILES>
C=C[C@@H]1C[C@]1(NC(=O)[C@@H]1C[C@@H]2CN1C(=O)[C@H](C1CCCCC1)NC(=O)OCC(C)(C)CCCc1cc3c(nccc3cc1OC)O2)C(=O)NS(=O)(=O)C1CC1

>  <MEASUREMENT LABEL>
bioavailability

>  <READING>
41

$$$$
